Entry source: the supplement of paper PMC10567573

B1: ATE1 (parent)
chain: YGSFHQQYWLDGKIIAVGVIDILP

# Variants of: B1
# experimental-protocol: protein stability index of a GFP-peptide fusion (GPS, HEK-293T) (PSI 1-6); higher = more stable;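 further: lentivirally expressed fusions sorted by FACS into six bins by GFP to DsRed ratio, PSI derived from sequencing read proportions per bin multiplied by bin number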
# stated-conditions: c terminus: a fixed tail appended
Record form. Attribute: protein stability index. Fill in for each entry.

Query block: // returns reported protein stability index for input YGSFHQFYWLDGKIIAVGVIDILP [Q7F]
Result block: 2.02

Query block: I'd like to know its protein stability index. The variant in question is YGSFHQQYWLHGKIIAVGVIDILP [D11H]
Result block: 2.8

Query block: Query: protein stability index; subject: YGSFHQQYWLDGKIKAVGVIDILP [I15K]
Result block: 1.79

Query block: Sample YGSFHQQYWDDGKIIAVGVIDILP [L10D] — what was its protein stability index?
Result block: 2.64

Query block: Which value of protein stability index has been reported for YGSFHQTYWLDGKIIAVGVIDILP [Q7T] in the records?
Result block: 3.51

Query block: Item YGDFHQQYWLDGKIIAVGVIDILP [S3D] has what recorded protein stability index?
Result block: 4.93

Query block: Give the measured protein stability index of YGSFHQQYWLDGKIIALGVIDILP [V17L] .
Result block: 2.42

Query block: Data request, read-out protein stability index, for YGSFHQQYWLDGFIIAVGVIDILP [K13F]
Result block: 2.76

Query block: Which value of protein stability index has been reported for YGSFHQQYALDGKIIAVGVIDILP [W9A] in the records?
Result block: 2.18

Query block: protein stability index for YGSFHQQYRLDGKIIAVGVIDILP [W9R] ?
Result block: 3.46

Query block: Quick one: protein stability index of YGSFHQQYKLDGKIIAVGVIDILP [W9K] ?
Result block: 3.09

Query block: Which protein stability index is reported for this variant? YGSFHQQYWLDGKIIAVTVIDILP [G18T]
Result block: 4.01

Query block: Look at this variant and give its reported protein stability index. YGSFDQQYWLDGKIIAVGVIDILP [H5D]
Result block: 4.47

Query block: # input variant: YGVFHQQYWLDGKIIAVGVIDILP [S3V] ; wanted: its protein stability index
Result block: 3.33

Query block: So what does the record say about protein stability index for YGSFHQQYWLAGKIIAVGVIDILP [D11A] ?
Result block: 4.43

Query block: Which protein stability index is listed for YGSFHQQYLLDGKIIAVGVIDILP [W9L] ?
Result block: 3.27

Query block: Could you share which protein stability index value was measured for YGSFHQQYWLDGKIIAVGVIDYLP [I22Y] ?
Result block: 2.23

Query block: Entry under review: YGSFHQQYWLDGKIIAVGDIDILP [V19D] . Reported protein stability index?
Result block: 3.87

Query block: Fill in the blank: the reported protein stability index of YGSFHQQYELDGKIIAVGVIDILP [W9E] is ____.
Result block: 2.26

Query block: For the variant shown here, YGSFHQQYWLTGKIIAVGVIDILP [D11T] , give the reported protein stability index.
Result block: 3.15

Query block: Can you share its protein stability index? I mean this variant: YGHFHQQYWLDGKIIAVGVIDILP [S3H]
Result block: 2.96

Query block: Given YCSFHQQYWLDGKIIAVGVIDILP [G2C] , state its recorded protein stability index.
Result block: 2.8

Query block: Any idea what protein stability index was measured for YGSFHQQYWLDGKIIAVGVIDTLP [I22T] ?
Result block: 1.74

Query block: What measured protein stability index goes with YGSFHQQYWLDGKIIAVSVIDILP [G18S] ?
Result block: 3.06

Query block: Field request: protein stability index | item: YGSFHQQYWLDGKIIAVGVIEILP [D21E]
Result block: 3.01

Query block: Reported protein stability index, variant YGSFHQQYWLDGKIIAVGVIDIDP [L23D] : ____
Result block: 2.88

Query block: For YGSFHQQYWLDGKIIAPGVIDILP [V17P] , what is its reported protein stability index?
Result block: 1.66

Query block: // protein stability index lookup, key: YGSFHQQYWLDGKIIAAGVIDILP [V17A]
Result block: 3.66

Query block: Which value of protein stability index has been reported for YGSFHQQYWLDGKIIVVGVIDILP [A16V] in the records?
Result block: 3.31

Query block: Given the variant YGSFHQQYWLDGKIIAVKVIDILP [G18K] , what is its reported protein stability index?
Result block: 3.6

Query block: Quick one: protein stability index of YGSFHQQYWLDGKIIAVGVIDIHP [L23H] ?
Result block: 2

Query block: So what does the record say about protein stability index for YGSFHQGYWLDGKIIAVGVIDILP [Q7G] ?
Result block: 3.84

Query block: What measured protein stability index goes with YGSWHQQYWLDGKIIAVGVIDILP [F4W] ?
Result block: 2.2

Query block: # protein stability index lookup, item YGSFHYQYWLDGKIIAVGVIDILP [Q6Y]
Result block: 2.43

Query block: Recorded protein stability index of YDSFHQQYWLDGKIIAVGVIDILP [G2D] , please.
Result block: 2.58

Query block: Tell me the measured protein stability index of YGSFHQQYWLDGKIFAVGVIDILP [I15F] , please.
Result block: 2.83

Query block: For the variant YGSFHQQYWLDGKITAVGVIDILP [I15T] , what protein stability index is on record?
Result block: 3.23

Query block: Which protein stability index value belongs to YGSFHQQYWLDGKIIAVGVDDILP [I20D] ?
Result block: 2.41

Query block: # get_value(readout='protein stability index', item= YGSFHQQYWVDGKIIAVGVIDILP [L10V] )
Result block: 3.17

Query block: Please give the measured protein stability index for this variant: YGSFHQQYWLDGKIIAVGVIDELP [I22E]
Result block: 3.75

Query block: Look up protein stability index for this variant: YGSFHQQYWLDGKIIAVGVIFILP [D21F]
Result block: 4.18

Query block: For YGSFIQQYWLDGKIIAVGVIDILP [H5I] , what is its reported protein stability index?
Result block: 1.49

Query block: Reported protein stability index for YGSFRQQYWLDGKIIAVGVIDILP [H5R] : what is it?
Result block: 2.13

Query block: Request the reported protein stability index associated with YQSFHQQYWLDGKIIAVGVIDILP [G2Q]
Result block: 2.66

Query block: Reported protein stability index for YGSFHQQYSLDGKIIAVGVIDILP [W9S] : what is it?
Result block: 2.48

Query block: Request the reported protein stability index associated with YGSFHQQYWLDGKIIAVGVIPILP [D21P]
Result block: 2.97
